# System: ISC-enriched organoids
# Assay Text: Primary screen, 384-well 2.5-D organoid differentiation (ENR+CD, 6 days): carbachol-induced lysozyme secretion (LYZ.S)
# Type: cell-based, murine
# Condition Label: Dose 10.00 uM; primary screen, FC vs plate median
Value Kind: Dose.FC.LYZ.S (log 2 fold change)
Numbers only, in log 2 fold change.

Completed entries (count: 2):
O=C(O)CNC(=O)c1c(O)c2ccccc2n(Cc2ccccc2)c1=O	−0.049
COc1cc(-n2c(=S)[nH]c3ccccc3c2=O)c(Cl)cc1Cl	−0.411

Hello, I would appreciate it if you could give Dose.FC.LYZ.S for each entry below.
1. Cc1ccc(C(=O)N(CCCN)[C@@H](c2nc3cc(Cl)ccc3c(=O)n2Cc2ccccc2)C(C)C)cc1 [Ispinesib (SB-715992)]
2. COc1ccccc1S(=O)(=O)Nc1ccc2c(c1)CN(C)C(=O)N2
3. O=C(Nc1ccccc1)N1CCN(c2nc(-c3ccccc3)ns2)CC1
4. COc1ccc(-c2cnc3c(-c4cccc5ncccc45)cnn3c2)cc1
5. CC(=O)c1cc([N+](=O)[O-])c(Sc2ccc(F)cc2F)s1
6. C[C@H](NC(=O)[C@@H](O)c1cc(F)cc(F)c1)C(=O)N[C@@H]1C(=O)N(C)c2ccccc2-c2ccccc21

// result
1: −0.286; 2: −0.194; 3: −0.068; 4: −0.202; 5: −0.063; 6: −0.157
